- Target or system: human CD3 expressed on cells (Jurkat cells; human T-cells of PBMC) (human, UniProt P09693 23-182; P20963 22-164)
- Sequence (chain, as listed by the source, chain 1 of 4): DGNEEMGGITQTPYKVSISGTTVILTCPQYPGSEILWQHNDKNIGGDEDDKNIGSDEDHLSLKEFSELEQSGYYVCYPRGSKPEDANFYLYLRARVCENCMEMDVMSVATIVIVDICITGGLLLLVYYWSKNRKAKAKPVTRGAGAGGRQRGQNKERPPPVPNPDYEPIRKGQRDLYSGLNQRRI
- Sequence (chain, as listed by the source, chain 2 of 4): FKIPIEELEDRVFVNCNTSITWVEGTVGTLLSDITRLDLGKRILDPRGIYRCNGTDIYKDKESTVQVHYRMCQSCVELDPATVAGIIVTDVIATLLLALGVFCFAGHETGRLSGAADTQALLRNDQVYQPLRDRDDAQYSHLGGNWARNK
- Sequence (P09693 23-182, chain 3 of 4): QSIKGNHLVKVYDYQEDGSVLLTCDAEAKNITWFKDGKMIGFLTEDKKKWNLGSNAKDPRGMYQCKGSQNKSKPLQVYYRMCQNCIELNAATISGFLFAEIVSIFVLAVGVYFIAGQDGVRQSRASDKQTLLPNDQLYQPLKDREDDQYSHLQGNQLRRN
- Sequence (P20963 22-164, chain 4 of 4): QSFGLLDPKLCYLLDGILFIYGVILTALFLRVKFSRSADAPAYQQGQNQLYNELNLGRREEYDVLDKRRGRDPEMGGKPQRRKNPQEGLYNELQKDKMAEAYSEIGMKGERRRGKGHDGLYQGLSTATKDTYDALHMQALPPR
- Measurement notes: cell-based or functional assay
Assay metric: U937 Cytotoxicity Human T-cells (pM)
Report only the number, with the unit pM understood.

query: Which measured U937 Cytotoxicity Human T-cells value corresponds to H1H5780P (antibody, human IgG1, V domains shown, H1H: human IgG1 Fc) VH: EVQLVESGGGLVQPGRSLRLSCAASGFTFDDYAMHWVRQAPGKGLEWVSGISWNGGSKDYADSVKGRFTISRDNTRNSLSLQMNSLRIEDTALYYCAKDKSGYGSFYYGLDVWGQGTTVTVSS VL: EIVLTQSPGTLSLSPGDRATLSCRASQSIRSIYLAWYQQKPGQAPRLLIHGASTRATGIPDRFSGSGSGTDFTLTISRLEPEDFAVYYCQQRVSSPYTFGQGTKLEIK ?
result: 4.03

Now examine the next entry.
query: Which measured U937 Cytotoxicity Human T-cells value corresponds to H1H5788P (antibody, V domains shown, H1H: human IgG1 Fc) VH: EVQLVESGGGLVQPGRSLRLSCAASGFTFDDYTMHWVRQAPGKGLEWVSGISWNSGSIGYADSVKGRFTISRDNAKNSLYLQMNSLRAEDTALFYCAKDQSGYGHYYYGMDVWGQGTTVTVSS VL: EIVMTQSPATLSVSPGERATLSCRASQSVSSNLAWYQQKPGQAPRLLIYGASTRATDIPARFSGSGSGTEFTLTISSLQSEDFAVYHCQQYNNWPLTFGGGTKVEIK ?
result: 15.4
